Cited source for all entries: patent US7390910B2

Test system: KB85
assay procedure: cells
Type: cell-based
condition notes: 72 h, 3 days, SRB
Method: Cell Survival Assay: Standard Pharmacological Test Procedure. […] Compounds are incubated with cells for 3 days.
Entries and their IC50
Write the answer as a number in nM, unit excluded.

Check out these entries, answers already filled in.
[
  {
    "compound": "CN[C@H](C(=O)N[C@H](C(=O)N(C)[C@H](/C=C(\\C)C(=O)N1CCC[C@H]1C(=O)OC)C(C)C)C(C)(C)C)C(C)(C)c1ccc(C)c(C)c1 [Example 17]",
    "test system": "KB85",
    "unit of measure": "nM",
    "IC50": 15
  },
  {
    "compound": "CN[C@H](C(=O)N[C@H](C(=O)N(C)[C@H](/C=C(\\C)C(=O)N1CCC[C@H]1C(=O)O)C(C)C)C(C)(C)C)C(C)(C)c1cc(C)cc(C)c1 [Example 20]",
    "test system": "KB85",
    "unit of measure": "nM",
    "IC50": 664
  }
]

Note: attention shifts to another entry.
input: Check KB85 data and give IC50 for CN[C@H](C(=O)N[C@H](C(=O)N(C)[C@H](/C=C(\C)C(=O)N1CCCC[C@H]1C(=O)OC)C(C)C)C(C)(C)C)C(C)(C)c1ccccc1 [Example 49] .
output: 17

---

System: KBV1
assay procedure: cells
Type: cell-based
condition notes: Homo sapiens, KB-V1, 3000 nM
Where a SMILES comes first, the peptide text is derived from it. [ ]: non-standard residue; d: D form. The star is where a group is joined. NMePhe(β,β-Me2) = CN[C@H](C(=O)O)C(C)(C)c1ccccc1; Tle = CC(C)(C)[C@H](N)C(=O)O; NMeV = CN[C@H](C(=O)O)C(C)C; NHBn = c1ccc(CN*)cc1
property label: inhibition at 3 µM (%)
Give just the number in %; leave the unit off.

[
  {
    "molecule": "C/C(=C\\[C@H](C(C)C)N(C)C(=O)[C@@H](NC(=O)[C@@H]1CCCN1C)C(C)(C)C)C(=O)O",
    "property label": "inhibition at 3 µM",
    "measured number": 10
  },
  {
    "molecule": "CN[C@H](C(=O)N[C@H](C(=O)N(C)[C@H](/C=C(\\C)C(=O)N1CCC[C@H]1C(=O)N1CCC[C@H]1C(=O)NCc1ccccc1)C(C)C)C(C)(C)C)C(C)(C)c1cc(C)cc(C)c1",
    "property label": "inhibition at 3 µM",
    "measured number": 8
  }
]

input: State, in one line, measured inhibition at 3 µM of CN[C@H](C(=O)N[C@H](C(=O)N(C)[C@H](C(=O)N1CCC[C@H]1C(=O)N1CCC[C@H]1C(=O)NCc1ccccc1)C(C)C)C(C)(C)C)C(C)(C)c1ccccc1 [Example 34] (H-[NMePhe(β,β-Me2)][Tle][NMeV]PP-NHBn)
output: 5

---

Tested on: bovine microtubule-associated protein (MAP)-rich tubulin
Assay type: biochemical
condition notes: 0.3 uM
Parameter Tubulin Polym. % inhibition at 0.3 uM: see the listing below.
Value expressed in %; do not type the unit.

# annotated cases, reported Tubulin Polym. % inhibition at 0.3 uM shown
[
  {
    "compound": "CN[C@H](C(=O)N[C@H](C(=O)N(C)[C@H](/C=C(\\C)C(O)c1ccccc1)C(C)C)C(C)(C)C)C(C)(C)c1ccccc1 (stereo partly drawn) [Example 74]",
    "unit of measure": "%",
    "Tubulin Polym. % inhibition at 0.3 uM": 73
  },
  {
    "compound": "CN[C@H](C(=O)N[C@H](C(=O)N(C)[C@H](/C=C(\\C)C(=O)N1CCC[C@H]1[C@H](OC)[C@@H](C)C(=O)N[C@@H](Cc1ccccc1)c1nccs1)C(C)C)C(C)(C)C)C(C)(C)C1CCCCC1 [Example 44]",
    "unit of measure": "%",
    "Tubulin Polym. % inhibition at 0.3 uM": 83
  },
  {
    "compound": "CN[C@H](C(=O)N[C@H](C(=O)N(C)[C@H](/C=C(\\C)C(=O)c1ncc[nH]1)C(C)C)C(C)(C)C)C(C)(C)c1ccccc1 [Example 88]",
    "unit of measure": "%",
    "Tubulin Polym. % inhibition at 0.3 uM": 91
  },
  {
    "compound": "CN[C@H](C(=O)N[C@H](C(=O)N(C)[C@H](/C=C(\\C)C(=O)N1CCOCC1)C(C)C)C(C)(C)C)C(C)(C)c1cc(C)cc(C)c1 [Example 3]",
    "unit of measure": "%",
    "Tubulin Polym. % inhibition at 0.3 uM": 51
  },
  {
    "compound": "CN[C@H](C(=O)N[C@H](C(=O)N(C)[C@H](/C=C/c1nnn[nH]1)C(C)C)C(C)(C)C)C(C)(C)c1ccccc1 [Example 86]",
    "unit of measure": "%",
    "Tubulin Polym. % inhibition at 0.3 uM": 31
  }
]

Now look at this one.
input: Report measured Tubulin Polym. % inhibition at 0.3 uM; entry is C=CCC(C(=O)N[C@H](C(=O)N(C)[C@H](/C=C(\C)C(=O)O)C(C)C)C(C)(C)C)C(C)(C)c1ccccc1 (stereo partly drawn) [Example 98]
output: 63
